Tested on: SK-MEL-5 melanoma
Experiment notes: NCI tumour cell line growth inhibition, 48 h

[
  {
    "Molecule": "O=C(O)CCSC(=S)Nc1ccc([N+](=O)[O-])cc1",
    "Target desc": "SK-MEL-5 melanoma",
    "TGI": "34.5 µM"
  },
  {
    "Molecule": "Cc1cc(=O)[nH]c(NNC(C#N)c2ccco2)n1 (stereo unspecified)",
    "Target desc": "SK-MEL-5 melanoma",
    "TGI": "> 100 µM"
  },
  {
    "Molecule": "COc1cccc(C2c3cc4c(cc3OC(N3CCCCC3)C2C)OCO4)c1OC (stereo unspecified)",
    "Target desc": "SK-MEL-5 melanoma",
    "TGI": "21.5 µM"
  },
  {
    "Molecule": "O=C(c1cccs1)N(Cc1cccnc1)C(=S)N(Cc1cccnc1)C(=O)c1cccs1",
    "Target desc": "SK-MEL-5 melanoma",
    "TGI": "> 100 µM"
  },
  {
    "Molecule": "Cc1ccc2c(c1)C=CC(C#N)N2C(=O)Oc1ccccc1 (stereo unspecified)",
    "Target desc": "SK-MEL-5 melanoma",
    "TGI": "> 100 µM"
  },
  {
    "Molecule": "Cn1c(=O)c2c(nc(NCCNc3nc4c(c(=O)n(C)c(=O)n4C)n3C)n2C)n(C)c1=O",
    "Target desc": "SK-MEL-5 melanoma",
    "TGI": "> 100 µM"
  }
]
